- Tested On: T1, IGF1R ectodomain (residues 31-930) (human, UniProt P08069 31-930)
- T1 construct: range 31-930; also called IGFIR; Insulin-like growth factor 1 receptor
- Protocol Notes: BLI (Octet); biotinylated target on streptavidin sensors, MBP-tagged miniprotein as analyte
Quantity Name: Kd

Q. Which Kd is reported for this binder? MBP-tagged IGF1R_mb (designed binder, not shown: N-terminal 6 His-tag and MBP tag) STRNAEFIMLLLELCVKSKNDPQVQEYVKKVKKQVERLVGNGDEKKAEEVARKALEYCADG
A. 0.86 µM

These measurements were taken from patent US20240376156A1.
